Target: AChE (Homo sapiens, UniProt P22303)
Sequence (P22303 32-614): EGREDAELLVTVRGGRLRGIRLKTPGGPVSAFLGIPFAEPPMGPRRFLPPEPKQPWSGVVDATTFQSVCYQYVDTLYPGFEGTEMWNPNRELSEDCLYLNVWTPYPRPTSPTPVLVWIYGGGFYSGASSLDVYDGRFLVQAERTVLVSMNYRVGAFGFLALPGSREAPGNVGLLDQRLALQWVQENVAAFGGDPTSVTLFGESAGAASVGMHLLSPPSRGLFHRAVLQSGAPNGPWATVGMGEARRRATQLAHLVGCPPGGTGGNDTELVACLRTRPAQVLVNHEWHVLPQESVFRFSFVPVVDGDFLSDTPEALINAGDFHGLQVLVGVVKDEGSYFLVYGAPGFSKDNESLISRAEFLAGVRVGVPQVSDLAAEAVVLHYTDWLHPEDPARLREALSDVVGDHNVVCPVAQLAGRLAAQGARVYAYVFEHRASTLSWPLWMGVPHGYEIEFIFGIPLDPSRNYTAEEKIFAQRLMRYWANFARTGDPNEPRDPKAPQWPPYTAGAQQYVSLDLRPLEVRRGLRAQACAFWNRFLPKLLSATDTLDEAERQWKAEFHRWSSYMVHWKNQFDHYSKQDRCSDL
Assay: biochemical
Conditions: IC50 (BChE)/IC50 (AChE)
# yes (1) = Selectivity for AChE below 1 (exclusive); no (0) = Selectivity for AChE at/above 1

Observe how each entry below is paired with its result.
* CCN(CC)CCOc1ccc(/C=C/C(=O)c2cc3ccccc3oc2=O)cc1 | no (0)
* O=C(/C=C/c1ccc(OCCN2CCCC2)cc1)c1cc2ccccc2oc1=O | no (0)
* COc1cc(/C=C/C(=O)c2cc3ccccc3oc2=O)cc(OC)c1OCCN1CCCCC1 [Compound 13m] | yes (1)

In plain terms, does COc1cc(/C=C/C(=O)c2cc3ccccc3oc2=O)ccc1OCCN1CCCC1 [Compound 12l] come in under 1 for Selectivity for AChE?
yes (1)

In plain terms, does CN(C)CCOc1cccc(/C=C/C(=O)c2cc3ccccc3oc2=O)c1 come in under 1 for Selectivity for AChE?
no (0)

---

Target: BChE (Homo sapiens)
Assay: biochemical
PROPERTY: IC50 (µM)
Provide only the numeric value, understood in µM.

Would you please look over these solved cases?
- CC(C)=CCOc1ccccc1/C=C/C(=O)c1cc2ccccc2oc1=O: 100
- O=C(/C=C/c1ccc(OCCN2CCCCC2)cc1)c1cc2ccccc2oc1=O: 1.03

Moving on to another compound below.
Given item O=C(/C=C/c1ccccc1OCCN1CCCCC1)c1cc2ccccc2oc1=O , the value recorded as its IC50 is 4.5

---

Molecular target: AChE (Homo sapiens, UniProt P22303)
Experiment: biochemical
Below, each of the compounds is paired with its reported IC50 value.
Provide only the numeric value, understood in µM.

- O=C(/C=C/c1ccccc1OCCN1CCOCC1)c1cc2ccccc2oc1=O: 261
- CCN(CC)CCOc1cccc(/C=C/C(=O)c2cc3ccccc3oc2=O)c1: 51.3
- CN(C)CCOc1cccc(/C=C/C(=O)c2cc3ccccc3oc2=O)c1: 0.92
- CN(C)CCOc1ccc(/C=C/C(=O)c2cc3ccccc3oc2=O)cc1: 0.37
- CN(C)C(=O)COc1ccc(/C=C/C(=O)c2cc3ccccc3oc2=O)cc1: 18.6
- CN(C)CCOc1ccccc1/C=C/C(=O)c1cc2ccccc2oc1=O: 16.4
- COc1cc(/C=C/C(=O)c2cc3ccccc3oc2=O)ccc1OCCN1CCCCC1 [Compound 12m]: 0.37
- CCN(CC)CCOc1ccc(/C=C/C(=O)c2cc3ccccc3oc2=O)cc1: 4.34
- O=C(/C=C/c1ccccc1OCCN1CCCCC1)c1cc2ccccc2oc1=O: 29.9
- COc1cc(/C=C/C(=O)c2cc3ccccc3oc2=O)cc(OC)c1OCCN1CCCCC1 [Compound 13m]: 9.58

# lookup: COc1cc(/C=C/C(=O)c2cc3ccccc3oc2=O)ccc1OCCN(C)C [Compound 12k] on AChE (Homo sapiens, UniProt P22303), IC50 = 1.65

---

Target: UniProtKB P22303
Assay: biochemical
Settings: read-out: IC50 AChE; means±SD of three assays; 30 min, 30 °C, pH 8.0
PROPERTY: pIC50
For clarity, pIC50 is expressed as the negative log10 of concentration in mol/L.

Given item COc1cc(/C=C/C(=O)c2cc3ccccc3oc2=O)cc(OC)c1OCCN(C)C [Compound 13k] , the value recorded as its pIC50 is 5.15

---

Molecular target: AChE (Homo sapiens, UniProt P22303)
Experiment: biochemical
Below, each of the molecules is paired with its reported pIC50 value.
For clarity, pIC50 is expressed as the negative log10 of concentration in mol/L.

Would you please look over these solved cases?
* COc1cc(/C=C/C(=O)c2cc3ccccc3oc2=O)ccc1OCCN1CCCC1 [Compound 12l] | 5.78
* O=C(/C=C/c1cccc(OCCN2CCCCC2)c1)c1cc2ccccc2oc1=O [Compound 6f] | 6.21
* COc1cc(/C=C/C(=O)c2cc3ccccc3oc2=O)cc(OC)c1OCCN1CCCC1 [Compound 13l] | 4.54
* O=C(/C=C/c1ccc(OCCN2CCCCC2)cc1)c1cc2ccccc2oc1=O [Compound 5f] | 6.16
* O=C(/C=C/c1ccccc1OCCN1CCCC1)c1cc2ccccc2oc1=O [Compound 7e] | 3.64

# lookup: O=C(/C=C/c1ccc(OCCN2CCCC2)cc1)c1cc2ccccc2oc1=O [Compound 5e] on AChE (Homo sapiens, UniProt P22303), pIC50 = 6.82

# lookup: O=C(/C=C/c1cccc(OCCN2CCCC2)c1)c1cc2ccccc2oc1=O [Compound 6e] on AChE (Homo sapiens, UniProt P22303), pIC50 = 5.49

# lookup: O=C(/C=C/c1cccc(OCC(=O)N2CCCCC2)c1)c1cc2ccccc2oc1=O [Compound 10f] on AChE (Homo sapiens, UniProt P22303), pIC50 = 3.82

---

Below, each of the molecules is paired with its reported log10 IC50 value.
Target: BChE (Homo sapiens, UniProt P06276)
Sequence (P06276 29-602): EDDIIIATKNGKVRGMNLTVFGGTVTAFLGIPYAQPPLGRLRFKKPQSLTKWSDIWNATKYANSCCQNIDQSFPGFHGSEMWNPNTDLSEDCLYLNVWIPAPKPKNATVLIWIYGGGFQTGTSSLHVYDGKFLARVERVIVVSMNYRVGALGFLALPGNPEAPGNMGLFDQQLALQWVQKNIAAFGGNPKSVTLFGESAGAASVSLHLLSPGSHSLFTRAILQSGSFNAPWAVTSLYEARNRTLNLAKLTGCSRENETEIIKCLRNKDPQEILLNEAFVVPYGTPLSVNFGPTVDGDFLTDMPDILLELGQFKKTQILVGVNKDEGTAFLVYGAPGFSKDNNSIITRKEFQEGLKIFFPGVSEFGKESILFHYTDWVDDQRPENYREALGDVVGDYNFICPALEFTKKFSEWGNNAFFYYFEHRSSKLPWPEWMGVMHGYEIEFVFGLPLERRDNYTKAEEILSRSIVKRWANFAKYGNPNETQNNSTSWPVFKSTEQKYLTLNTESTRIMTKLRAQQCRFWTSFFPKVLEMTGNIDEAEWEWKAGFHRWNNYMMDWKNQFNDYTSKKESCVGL
Experiment: biochemical
// units: µM (pre-log); metric: IC50; scale: log10

Given item COc1cc(/C=C/C(=O)c2cc3ccccc3oc2=O)cc(OC)c1OCCN1CCCC1 [Compound 13l] , the value recorded as its log10 IC50 is 1.13

Given item O=C(/C=C/c1ccccc1OCCN1CCCC1)c1cc2ccccc2oc1=O , the value recorded as its log10 IC50 is 0.58

---

Molecular target: UniProt P22303
Assay: biochemical
Conditions: IC50 (BChE)/IC50 (AChE)
PROPERTY: Selectivity for AChE
Lab note: record the figure alone, no unit after it.

Would you please look over these solved cases?
• CCN(CC)CCOc1cccc(/C=C/C(=O)c2cc3ccccc3oc2=O)c1 [Compound 6g] = 0.02
• O=C(/C=C/c1cccc(OCCN2CCCCC2)c1)c1cc2ccccc2oc1=O [Compound 6f] = 6.61
• O=C(/C=C/c1cccc(OCC(=O)N2CCCCC2)c1)c1cc2ccccc2oc1=O [Compound 10f] = 1.46

Moving on to another compound below.
# lookup: COc1cc(/C=C/C(=O)c2cc3ccccc3oc2=O)cc(OC)c1OCCN(C)C [Compound 13k] on UniProt P22303, Selectivity for AChE = 1.87

---

Below, each of the molecules is paired with its reported Selectivity for AChE value.
Molecular target: AChE (Homo sapiens)
Experiment: biochemical
Settings: IC50 (BChE)/IC50 (AChE)
Lab note: record the figure alone, no unit after it.

- COc1cc(/C=C/C(=O)c2cc3ccccc3oc2=O)ccc1OCCN(C)C [Compound 12k]: 5.15
- O=C(/C=C/c1ccccc1OCCN1CCCC1)c1cc2ccccc2oc1=O [Compound 7e]: 0.02
- O=C(/C=C/c1ccccc1OCCN1CCCCC1)c1cc2ccccc2oc1=O [Compound 7f]: 0.15
- COc1cc(/C=C/C(=O)c2cc3ccccc3oc2=O)ccc1OCCN1CCCCC1 [Compound 12m]: 1.41
- O=C(/C=C/c1cccc(OCCN2CCCC2)c1)c1cc2ccccc2oc1=O [Compound 6e]: 1.42

# lookup: O=C(/C=C/c1ccccc1OCCN1CCOCC1)c1cc2ccccc2oc1=O [Compound 7h] on AChE (Homo sapiens), Selectivity for AChE = 0.11

# lookup: O=C(/C=C/c1ccc(OCCN2CCCCC2)cc1)c1cc2ccccc2oc1=O [Compound 5f] on AChE (Homo sapiens), Selectivity for AChE = 1.49

# lookup: CN(C)CCOc1ccccc1/C=C/C(=O)c1cc2ccccc2oc1=O [Compound 7d] on AChE (Homo sapiens), Selectivity for AChE = 0.92

# lookup: COc1cc(/C=C/C(=O)c2cc3ccccc3oc2=O)cc(OC)c1OCCN1CCCC1 [Compound 13l] on AChE (Homo sapiens), Selectivity for AChE = 0.47

---

Target: BChE (Homo sapiens, UniProt P06276)
Assay: biochemical
Details: read-out: IC50 BChE; means±SD of three assays; 30 min, 30 °C, pH 8.0
PROPERTY: pIC50
For clarity, pIC50 is expressed as the negative log10 of concentration in mol/L.

Given item COc1cc(/C=C/C(=O)c2cc3ccccc3oc2=O)cc(OC)c1OCCN(C)C [Compound 13k] , the value recorded as its pIC50 is 4.88

---

Molecular target: AChE (Homo sapiens, UniProt P22303)
Experiment: biochemical
Below, each of the compounds is paired with its reported IC50 value.

Would you please look over these solved cases?
- CN(C)C(=O)COc1cccc(/C=C/C(=O)c2cc3ccccc3oc2=O)c1 [Compound 10d]: > 500 µM
- O=C(/C=C/c1cccc(OCCN2CCOCC2)c1)c1cc2ccccc2oc1=O: > 500 µM
- CC(C)=CCOc1ccc(/C=C/C(=O)c2cc3ccccc3oc2=O)cc1: > 500 µM

Moving on to another compound below.
Given item O=C(/C=C/c1ccc(OCC(=O)N2CCCC2)cc1)c1cc2ccccc2oc1=O , the value recorded as its IC50 is > 500 µM
